Target Or System: XPA M32-4 (UniProt P23025 1-273, R30E;K31E;R32E;R34E)
Sequence (P23025 whole entry R30E/K31E/R32E/R34E): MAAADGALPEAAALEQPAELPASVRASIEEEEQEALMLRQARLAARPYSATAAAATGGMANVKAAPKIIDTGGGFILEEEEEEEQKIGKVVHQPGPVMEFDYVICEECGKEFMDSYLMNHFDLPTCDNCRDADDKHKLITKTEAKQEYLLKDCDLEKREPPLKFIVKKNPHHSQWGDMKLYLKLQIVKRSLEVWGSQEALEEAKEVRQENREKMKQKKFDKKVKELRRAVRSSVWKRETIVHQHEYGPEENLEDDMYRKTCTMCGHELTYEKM
Test Description: MST
Quantity Measured: pKd
Would you please state pKd, meaning minus log10 of the concentration in mol/L, as a bare number?

Exercise: Determine its reported pKd: TTTTGCGGCCGCTTTTGCGGCCGC (structured_DNA) [4-nt hairpin NER junction mimic]
Solution: 5.08
